- study-system: UniProt D5GU71
- Sequence (D5GU71 1-754): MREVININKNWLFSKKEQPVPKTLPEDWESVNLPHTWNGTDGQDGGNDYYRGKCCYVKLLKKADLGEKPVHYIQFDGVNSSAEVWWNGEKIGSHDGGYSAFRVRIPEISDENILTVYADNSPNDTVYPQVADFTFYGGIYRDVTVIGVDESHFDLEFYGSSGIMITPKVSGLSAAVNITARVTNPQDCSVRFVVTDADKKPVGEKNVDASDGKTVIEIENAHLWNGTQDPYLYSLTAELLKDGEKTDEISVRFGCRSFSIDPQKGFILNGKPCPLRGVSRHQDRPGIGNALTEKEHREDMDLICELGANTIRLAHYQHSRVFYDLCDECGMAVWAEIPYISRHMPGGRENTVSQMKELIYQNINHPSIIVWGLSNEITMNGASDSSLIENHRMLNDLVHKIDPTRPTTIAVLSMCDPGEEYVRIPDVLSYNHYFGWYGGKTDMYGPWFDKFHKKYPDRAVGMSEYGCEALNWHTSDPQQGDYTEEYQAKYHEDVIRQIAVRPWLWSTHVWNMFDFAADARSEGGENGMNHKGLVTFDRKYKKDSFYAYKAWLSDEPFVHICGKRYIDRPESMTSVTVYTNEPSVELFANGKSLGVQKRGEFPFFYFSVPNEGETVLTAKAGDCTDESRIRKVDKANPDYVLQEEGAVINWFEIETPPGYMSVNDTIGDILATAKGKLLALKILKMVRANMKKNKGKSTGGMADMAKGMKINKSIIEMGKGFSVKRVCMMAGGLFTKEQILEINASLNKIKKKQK
pIC50: −log10 of the molar value.

>  <query-smiles>
O=C(Nc1cccc(-c2nc3ncccc3o2)c1)c1ccc(-c2cccc(Cl)c2Cl)o1

>  <pIC50>
5.02

$$$$
